Study target: NADPH oxidase 2 (Homo sapiens)
Measurement notes: NOX2-dependent H2O2 signal modulators, primary screen, NOX inhibitor project, cell-based, HEK293-NOX2, PMA-stimulated, Amplex Red fluorescence (AID 1159); also: test concentration not given here
Applied conditions: 45 min, higher = more signal, called active from +8 up or from −8 down
Note to self: values exactly at -0.5 are 1 (yes). So z-score at or above -0.5 is 1 (yes), below is 0 (no).

COC(=O)[C@@]1(Cc2ccccc2)[C@H]2c3cc(C(=O)N(C)C)n(CCn4cc([N+](=O)[O-])nc4C)c3C[C@H]2CN1C(=O)c1ccccc1; 1 (yes)

Request: Textbook exercise: given the entry `C=C(C(=O)CC[C@H](OC(=O)c1ccccc1-c1ccccc1C(=O)O)c1ccccc1OCCO)C(C)C` , state whether its z-score is greater than or equal to -0.5.
Response: 1 (yes)

Request: Has `CCc1cccc(NC(=O)O[C@H]2[C@H](OC(=O)Nc3ccccc3)[C@H](OC(=O)Nc3ccccc3)[C@@H](OC)O[C@@H]2CO)c1` a recorded z-score greater than or equal to -0.5?
Response: 0 (no)

Request: Is z-score for `CCOC(=O)C1=C[C@@H](C(C)(C)C)N(S(=O)(=O)c2ccc(C)cc2)[C@H]1c1ccccc1` at or above -0.5?
Response: 0 (no)

Request: Quick check: does `[N-]=[N+]=Nc1ccccc1C[C@]1(C(=O)O)N=C(c2ccc(OCCCO)cc2)O[C@H]1c1ccccc1` have z-score greater than or equal to -0.5?
Response: 1 (yes)

Request: Hi team, for `[N-]=[N+]=NCc1ccccc1[C@@H]1OC(c2ccc(OCCCO)cc2)=N[C@]1(Cc1ccccc1N=[N+]=[N-])C(=O)N1CCCCC1` , is the recorded z-score at or above -0.5?
Response: 0 (no)

Request: In plain terms: is recorded z-score at least -0.5 for CCCCCCCCCCC(O)C1C=CC2C(=O)N(c3ccccc3)C(=O)C2N1Nc1ccccc1F (stereo not given) ?
Response: 0 (no)

Request: Is z-score for `CN(C)CCCCCCNC(=O)[C@@H]1C[C@@H]2C(=O)N[C@@H](CCCCN)C(=O)N2[C@@H]1c1ccc(O)cc1` at or above -0.5?
Response: 1 (yes)

Request: // inclusive: z-score at least -0.5? input: `Cc1nc2cc(Br)ccc2c(=O)n1Cc1cccc(O)c1`
Response: 0 (no)

Request: Check this compound for z-score at or above -0.5: `Cc1ccc(F)cc1S(=O)(=O)N[C@@H]1CCN(Cc2cccc3[nH]ccc23)C1`
Response: 1 (yes)

From: PubChem BioAssay
